# tested.target: Retinoic acid receptor RXR-alpha (Homo sapiens, UniProt P19793)
# experiment: Transcriptional activity was evaluated in CV-1 cells transfected with expression vector for Retinoic acid receptor RXR-alpha
endpoint.label: EC50 (nM)
Use nM as the unit, but write only the number.

Solved cases (4 shown):
>>> quantitative_readout("CC1(C)CCC(C)(C)c2cc(/C(=N/O)c3ccc(C(=O)O)cc3)c(Br)cc21")
27
>>> quantitative_readout("CC1(C)CCC(C)(C)c2cc(/C(=N/O)c3ccc(C(=O)O)cc3)ccc21")
2960
>>> quantitative_readout("CCO/N=C(\\c1ccc(C(=O)O)cc1)c1cc2c(cc1C)C(C)(C)CCC2(C)C")
5
>>> quantitative_readout("CCCO/N=C(\\c1ccc(C(=O)O)cc1)c1cc2c(cc1C)C(C)(C)CCC2(C)C")
32

Moving on to the next molecule.
# query: EC50 of entry C=CCO/N=C(\c1ccc(C(=O)O)cc1)c1cc2c(cc1C)C(C)(C)CCC2(C)C
6

====

# tested.target: Retinoic acid receptor RXR-beta (Homo sapiens, UniProt P28702)
# experiment: Transcriptional activity was evaluated in CV-1 cells transfected with expression vector for Retinoic acid receptor RXR-beta
Rule: EC50 below 60 nM gives Fulfilled, anything at or above gives Not fulfilled.

Completed entries (count: 7):
>>> label_class("C=CCO/N=C(\\c1ccc(C(=O)O)cc1)c1cc2c(cc1C)C(C)(C)CCC2(C)C")
"Fulfilled"
>>> label_class("Cc1cc2c(cc1/C(=N/OC(C)(C)C)c1ccc(C(=O)O)cc1)C(C)(C)CCC2(C)C")
"Not fulfilled"
>>> label_class("CCO/N=C(\\c1ccc(C(=O)O)cc1)c1cc2c(cc1C)C(C)(C)CCC2(C)C")
"Fulfilled"
>>> label_class("Cc1cc2c(cc1/C(=N\\O)c1ccc(C(=O)O)cc1)C(C)(C)CCC2(C)C")
"Not fulfilled"
>>> label_class("CC1(C)CCC(C)(C)c2cc(/C(=N/O)c3ccc(C(=O)O)cc3)ccc21")
"Not fulfilled"
>>> label_class("Cc1cc2c(cc1/C(=N/OCC#N)c1ccc(C(=O)O)cc1)C(C)(C)CCC2(C)C")
"Fulfilled"
>>> label_class("CCCO/N=C(\\c1ccc(C(=O)O)cc1)c1cc2c(cc1C)C(C)(C)CCC2(C)C")
"Fulfilled"

Determine whether this compound shows EC50 lower than 60 nM (ties excluded): Cc1cc2c(cc1/C(=N/OCC(=O)O)c1ccc(C(=O)O)cc1)C(C)(C)CCC2(C)C
Not fulfilled

====

# tested.target: Retinoic acid receptor RXR-alpha (Homo sapiens)
# Sequence (P19793 whole entry): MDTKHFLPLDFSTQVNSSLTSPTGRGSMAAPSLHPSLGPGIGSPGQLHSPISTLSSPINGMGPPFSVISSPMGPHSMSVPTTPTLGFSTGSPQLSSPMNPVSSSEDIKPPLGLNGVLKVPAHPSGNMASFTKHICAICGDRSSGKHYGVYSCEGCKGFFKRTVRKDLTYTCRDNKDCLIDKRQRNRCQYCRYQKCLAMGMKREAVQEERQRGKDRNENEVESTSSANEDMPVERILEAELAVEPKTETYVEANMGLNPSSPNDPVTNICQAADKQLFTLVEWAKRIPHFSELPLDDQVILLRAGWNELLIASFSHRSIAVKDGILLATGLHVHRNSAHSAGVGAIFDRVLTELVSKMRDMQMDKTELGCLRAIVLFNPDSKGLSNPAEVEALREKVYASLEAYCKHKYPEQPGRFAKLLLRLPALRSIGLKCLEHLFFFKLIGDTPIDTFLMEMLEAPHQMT
# experiment: Transcriptional activity was evaluated in CV-1 cells transfected with expression vector for Retinoic acid receptor RXR-alpha
# Assay type: functional, cell-based
endpoint.label: pEC50
In textbook form, pEC50 equals minus log to base ten of the concentration in mol/L.

Solved cases (3 shown):
>>> quantitative_readout("CO/N=C(\\c1ccc(C(=O)O)cc1)c1cc2c(cc1C)C(C)(C)CCC2(C)C")
8.30
>>> quantitative_readout("CO/N=C(/c1ccc(C(=O)O)cc1)c1ccc2c(c1)C(C)(C)CCC2(C)C")
6.60
>>> quantitative_readout("Cc1cc2c(cc1/C(=N/OCCN)c1ccc(C(=O)O)cc1)C(C)(C)CCC2(C)C")
6.46

# query: pEC50 of entry CCCCO/N=C(\c1ccc(C(=O)O)cc1)c1cc2c(cc1C)C(C)(C)CCC2(C)C
7.07

# query: pEC50 of entry Cc1cc2c(cc1/C(=N/OCC#N)c1ccc(C(=O)O)cc1)C(C)(C)CCC2(C)C
7.92

# query: pEC50 of entry CO/N=C(/c1ccc(C(=O)O)cc1)c1cc2c(cc1C)C(C)(C)CCC2(C)C
6.42

# query: pEC50 of entry Cc1cc2c(cc1/C(=N/OCC(=O)O)c1ccc(C(=O)O)cc1)C(C)(C)CCC2(C)C
6.15

====

# tested.target: Retinoic acid receptor RXR-beta (Homo sapiens)
# Sequence (P28702 whole entry): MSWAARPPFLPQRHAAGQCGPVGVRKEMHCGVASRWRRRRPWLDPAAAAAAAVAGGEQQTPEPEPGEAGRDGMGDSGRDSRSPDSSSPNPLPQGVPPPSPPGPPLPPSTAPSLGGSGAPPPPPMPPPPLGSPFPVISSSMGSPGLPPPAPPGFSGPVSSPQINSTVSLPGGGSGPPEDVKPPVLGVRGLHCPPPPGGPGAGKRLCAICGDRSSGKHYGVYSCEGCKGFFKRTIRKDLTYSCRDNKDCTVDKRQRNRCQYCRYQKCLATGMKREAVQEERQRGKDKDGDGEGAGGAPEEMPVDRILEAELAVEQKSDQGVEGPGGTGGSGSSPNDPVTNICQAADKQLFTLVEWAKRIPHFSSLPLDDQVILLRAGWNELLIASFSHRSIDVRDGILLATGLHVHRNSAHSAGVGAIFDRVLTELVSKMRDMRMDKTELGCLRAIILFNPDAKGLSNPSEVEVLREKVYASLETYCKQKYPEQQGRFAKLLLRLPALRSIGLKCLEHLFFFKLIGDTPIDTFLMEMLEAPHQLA
# experiment: Transcriptional activity was evaluated in CV-1 cells transfected with expression vector for Retinoic acid receptor RXR-beta
Measured EC50 by item
Use nM as the unit, but write only the number.

Solved cases (2 shown):
>>> quantitative_readout("Cc1cc2c(cc1/C(=N/O)c1ccc(C(=O)O)cc1)C(C)(C)CCC2(C)C")
14
>>> quantitative_readout("CO/N=C(\\c1ccc(C(=O)O)cc1)c1cc2c(cc1C)C(C)(C)CCC2(C)C")
10

Moving on to the next molecule.
State its EC50 on Retinoic acid receptor RXR-beta (Homo sapiens): CO/N=C(/c1ccc(C(=O)O)cc1)c1ccc2c(c1)C(C)(C)CCC2(C)C
207

====

Measured Ki by item
# tested.target: Retinoic acid receptor RXR-beta (Homo sapiens, UniProt P28702)
# experiment: Binding affinity towards recombinantly expressed Retinoic acid receptor RXR-beta in baculoviral system, by using 5 nM [3H]targretin in a competitive binding assay

>>> result("Cc1cc2c(cc1/C(=N/OCCN)c1ccc(C(=O)O)cc1)C(C)(C)CCC2(C)C")
"> 1 µM"
>>> result("CCO/N=C(/c1ccc(C(=O)O)cc1)c1cc2c(cc1C)C(C)(C)CCC2(C)C")
"> 1 µM"

# query: Ki of entry CO/N=C(/c1ccc(C(=O)O)cc1)c1ccc2c(c1)C(C)(C)CCC2(C)C
0.363 µM

====

# tested.target: Retinoic acid receptor RXR-alpha (Homo sapiens, UniProt P19793)
# experiment: Binding affinity towards recombinantly expressed Retinoic acid receptor RXR-alpha in baculoviral system, by using 5 nM [3H]targretin in a competitive binding assay
endpoint.label: Ki

Solved cases (8 shown):
>>> result("CCO/N=C(/c1ccc(C(=O)O)cc1)c1cc2c(cc1C)C(C)(C)CCC2(C)C")
"620 nM"
>>> result("Cc1cc2c(cc1/C(=N/OCC#N)c1ccc(C(=O)O)cc1)C(C)(C)CCC2(C)C")
"11 nM"
>>> result("CC1(C)CCC(C)(C)c2cc(/C(=N/O)c3ccc(C(=O)O)cc3)c(Br)cc21")
"12 nM"
>>> result("Cc1cc2c(cc1/C(=N/OCCN)c1ccc(C(=O)O)cc1)C(C)(C)CCC2(C)C")
"> 1000 nM"
>>> result("CO/N=C(/c1ccc(C(=O)O)cc1)c1ccc2c(c1)C(C)(C)CCC2(C)C")
"> 1000 nM"
>>> result("CCO/N=C(\\c1ccc(C(=O)O)cc1)c1cc2c(cc1C)C(C)(C)CCC2(C)C")
"26 nM"
>>> result("CO/N=C(\\c1ccc(C(=O)O)cc1)c1cc2c(cc1C)C(C)(C)CCC2(C)C")
"9 nM"
>>> result("Cc1cc2c(cc1/C(=N/OCC(=O)O)c1ccc(C(=O)O)cc1)C(C)(C)CCC2(C)C")
"> 1000 nM"

# query: Ki of entry CCCCO/N=C(\c1ccc(C(=O)O)cc1)c1cc2c(cc1C)C(C)(C)CCC2(C)C
177 nM

# query: Ki of entry CC1(C)CCC(C)(C)c2cc(/C(=N/O)c3ccc(C(=O)O)cc3)ccc21
4230 nM

# query: Ki of entry Cc1cc2c(cc1/C(=N/OC(C)(C)C)c1ccc(C(=O)O)cc1)C(C)(C)CCC2(C)C
484 nM

# query: Ki of entry C=CCO/N=C(\c1ccc(C(=O)O)cc1)c1cc2c(cc1C)C(C)(C)CCC2(C)C
7 nM

# query: Ki of entry Cc1cc2c(cc1/C(=N\OC(C)(C)C)c1ccc(C(=O)O)cc1)C(C)(C)CCC2(C)C
> 1000 nM

# query: Ki of entry CO/N=C(/c1ccc(C(=O)O)cc1)c1cc2c(cc1C)C(C)(C)CCC2(C)C
394 nM

# query: Ki of entry CCCO/N=C(\c1ccc(C(=O)O)cc1)c1cc2c(cc1C)C(C)(C)CCC2(C)C
6 nM
